These data points were gathered from patent US20230172206A1.

tested on: Phakopsora pachyrhizi (F129L); assay: Protective control of soybean rust on soybeans (PHAKPA P6); format: in vivo; conditions: protective P6, 4 ppm, F129L isolate
MEASUREMENT_LABEL: % PHAKPA (F129L) Disease level P6 at 4 ppm (%)
Report only the number, with the unit % understood.

Study these solved cases before continuing.
The compound identified as CO/N=C(/C(=O)OC)c1cccc(C)c1CO/N=C(\C)c1ccc(-c2ccccc2)cc1C(F)(F)F registered its % PHAKPA (F129L) Disease level P6 at 4 ppm at 53

Per the record, CO/N=C(/C)c1ccc(/C(C)=N/OCc2c(C)cccc2/C(=N\OC)C(=O)OC)c(OC(F)(F)F)c1 has % PHAKPA (F129L) Disease level P6 at 4 ppm of 73

% PHAKPA (F129L) Disease level P6 at 4 ppm measured on CO/C=C(/C(=O)OC)c1cccc(C)c1CO/N=C(\C)c1ccc(-c2ccc(F)cc2)cc1C(F)(F)F = 13

# % PHAKPA (F129L) Disease level P6 at 4 ppm of C=C(C)c1cccc(/C(=N\OC)C(=O)NC)c1CO/N=C(\C)c1ccccc1 = 90

Short answer for CO/C=C(/C(=O)OC)c1cccc(C)c1CO/N=C(\C)c1c(Cl)cc(Cl)cc1OC(F)(F)F : % PHAKPA (F129L) Disease level P6 at 4 ppm was 73

Others:
Just so you know, measured % PHAKPA (F129L) Disease level P6 at 4 ppm for CO/C=C(/C(=O)OC)c1cccc(C)c1CO/N=C(\C)c1c(F)cccc1C(F)(F)F came out at 18

# % PHAKPA (F129L) Disease level P6 at 4 ppm of CNC(=O)/C(=N/OC)c1cccc(C)c1CO/N=C(\C)c1ccc(F)c(F)c1OC(F)(F)F = 2

Per the records, this compound ( CNC(=O)/C(=N/OC)c1cccc(C)c1CO/N=C(\C)c1ccc(Cc2ccccc2)cc1OC(F)(F)F ) has % PHAKPA (F129L) Disease level P6 at 4 ppm equal to 60

----------
Entries annotated with measured % PHAKPA (F129L) Disease level P2 at 16 ppm
tested on: Phakopsora pachyrhizi (F129L); test: Protective control of soybean rust on soybeans (PHAKPA P2); format: in vivo; conditions: protective P2, 16 ppm, soybean rust F129L isolate
# number only, unit % dropped from output

Use the examples below as a reference point.
Case CNC(=O)/C(=N/OC)c1cccc(C)c1CO/N=C(\C)c1ccccc1C1CC1(F)F (stereo not drawn) , Phakopsora pachyrhizi (F129L), % PHAKPA (F129L) Disease level P2 at 16 ppm recorded as 30

Hey, Phakopsora pachyrhizi (F129L) data for CNC(=O)/C(=N/OC)c1cccc(C)c1CO/N=C(\C)c1c(F)cccc1OC(F)(F)F : % PHAKPA (F129L) Disease level P2 at 16 ppm came out at 4

Next:
Summary: CO/N=C(/C(=O)OC)c1cccc(C)c1CO/N=C(\C)c1cccc(C(C)(F)F)c1 , Phakopsora pachyrhizi (F129L), % PHAKPA (F129L) Disease level P2 at 16 ppm = 4

----------
test system: Phakopsora pachyrhizi (F129L); assay: Protective control of soybean rust on soybeans (PHAKPA P2); assay type: in vivo; settings: protective P2, 16 ppm, soybean rust F129L isolate
As shown below, each of these compounds has a reported % PHAKPA (F129L) Disease level P2 at 16 ppm value.
Give your result in % as a bare value.

// worked examples, % PHAKPA (F129L) Disease level P2 at 16 ppm included
Documented % PHAKPA (F129L) Disease level P2 at 16 ppm of CNC(=O)/C(=N/OC)c1cccc(C)c1CO/N=C(\C)c1ccc(F)cc1C(F)(F)F : 0

CNC(=O)/C(=N/OC)c1cccc(C)c1CO/N=C(\C)c1c(F)cc(F)cc1OC(F)(F)F yielded % PHAKPA (F129L) Disease level P2 at 16 ppm of 0

Entry CNC(=O)/C(=N/OC)c1cccc(C)c1CO/N=C(\C)c1ccccc1OC(F)F — recorded % PHAKPA (F129L) Disease level P2 at 16 ppm = 3

Record CNC(=O)/C(=N/OC)c1cccc(C)c1CO/N=C(\C)c1c(Cl)cccc1C(F)(F)F . Reported % PHAKPA (F129L) Disease level P2 at 16 ppm: 14

// field: % PHAKPA (F129L) Disease level P2 at 16 ppm; key: CO/N=C(/C(=O)OC)c1cccc(C)c1CO/N=C(\C)c1ccc(OC)cc1C(F)(F)F ; value = 8

Shift focus to the following entry.
Quick note, % PHAKPA (F129L) Disease level P2 at 16 ppm for CNC(=O)/C(=N/OC)c1cccc(C)c1CO/N=C(\C)c1ccc(Br)cc1C(F)(F)F landed at 7

----------
tested on: Phakopsora pachyrhizi (F129L); experiment: Protective control of soybean rust on soybeans (PHAKPA P2); type: in vivo; settings: protective P2, 16 ppm, F129L isolate
Each entry below carries its reported % PHAKPA (F129L) Disease level P2 at 16 ppm.
Your answer should be a plain number; it is taken to be in %.

Past entries and their recorded results:
Lab note: CO/C=C(/C(=O)OC)c1cccc(C)c1CO/N=C(\C)c1ccc(C)cc1C(F)(F)F gave % PHAKPA (F129L) Disease level P2 at 16 ppm of 0

CO/N=C(/C(=O)OC)c1cccc(C)c1CO/N=C(\C)c1ccc(Cc2ccccc2)cc1C(F)(F)F has a reported % PHAKPA (F129L) Disease level P2 at 16 ppm of 12

# % PHAKPA (F129L) Disease level P2 at 16 ppm (molecule: CO/N=C(/C(=O)OC)c1cccc(Br)c1CO/N=C(\C)c1ccccc1 ) is 4

The record that follows has no % PHAKPA (F129L) Disease level P2 at 16 ppm shown yet.
Please fill in: % PHAKPA (F129L) Disease level P2 at 16 ppm reported for CNC(=O)/C(=N/OC)c1cccc(C)c1CO/N=C(\C)c1ccc(C#N)cc1C(F)(F)F = 27

----------
tested on: Phakopsora pachyrhizi (F129L); test: Protective control of soybean rust on soybeans (PHAKPA P2); assay type: in vivo; conditions: protective P2, 4 ppm, F129L isolate
// boundary case: % PHAKPA (F129L) Disease level P2 at 4 ppm equal to 60% maps to no; strictly smaller maps to yes

Look over these answered cases.
Report whether reported % PHAKPA (F129L) Disease level P2 at 4 ppm is lower than 60% (strictly) for CNC(=O)/C(=N/OC)c1cccc(C)c1CO/N=C(\C)c1ccc(Cc2ccccc2)cc1OC(F)(F)F
yes

Find out if reported % PHAKPA (F129L) Disease level P2 at 4 ppm for CO/N=C(/C(=O)OC)c1cccc(C)c1CO/N=C(\C)c1ccc(Cc2ccccc2)cc1OC(F)(F)F is less than 60%
yes

Confirm or reject: % PHAKPA (F129L) Disease level P2 at 4 ppm of CNC(=O)/C(=N/OC)c1cccc(C)c1CO/N=C(\C)c1c(Cl)cc(Cl)cc1OC(F)(F)F lies strictly below 60%
no

Hello, I'm reviewing records and need to know if % PHAKPA (F129L) Disease level P2 at 4 ppm of CO/N=C(/C(=O)OC)c1cccc(C)c1CO/N=C(\C)c1c(Cl)cc(Cl)cc1OC(F)(F)F is below 60%. Could you check?
no

Find out if reported % PHAKPA (F129L) Disease level P2 at 4 ppm for CO/C=C(/C(=O)OC)c1cccc(C)c1CO/N=C(\C)c1c(Cl)ccc(F)c1OC(F)(F)F is less than 60%
no

New cases:
Is 60% strictly greater than the compound's reported % PHAKPA (F129L) Disease level P2 at 4 ppm? compound: CNC(=O)/C(=N/OC)c1cccc(C)c1CO/N=C(\C)c1ccc(/C(C)=N\OC)cc1C(F)(F)F
yes

Here's an entry: CNC(=O)/C(=N/OC)c1cccc(C)c1CO/N=C(\C)c1ccc(/C(C)=N\OC)cc1OC(F)(F)F . Is its % PHAKPA (F129L) Disease level P2 at 4 ppm below 60%?
yes

Find out if reported % PHAKPA (F129L) Disease level P2 at 4 ppm for CNC(=O)/C(=N/OC)c1cccc(C)c1CO/N=C(\C)c1ccc(C#N)cc1C(F)(F)F is less than 60%
no

----------
system: Cercospora sojina; type: cell-based; conditions: 4 ppm, 7 days after inoculation, relative to compound-free control (100%)
MEASUREMENT_LABEL: Fungal growth (%) CERCSO
Please report the result as a number followed by the unit.

Form field Fungal growth (%) CERCSO, entry CO/N=C(/C(=O)OC)c1cccc(C)c1CO/N=C(/c1cccc(Cl)c1)C1CC1 [drawing 966] : 61%

Lookup result for CNC(=O)/C(=N/OC)c1cccc(C)c1CO/N=C(\OC)c1cccc(C(F)(F)F)c1 [drawing 950] ; measured Fungal growth (%) CERCSO: 60%

Lab book: Fungal growth (%) CERCSO of CO/N=C(/C(=O)OC)c1cccc(C)c1CO/N=C(\C)c1cccc(OC(F)(F)F)c1 [drawing 936] noted as 33%

// Fungal growth (%) CERCSO value for CO/N=C(/C(=O)OC)c1cccc(C)c1CO/N=C(\OC)c1cccc(C)c1 : 67%

The molecule listed as CO/N=C(/C(=O)OC)c1cccc(C)c1CO/N=C(\SC)c1cccc(C)c1 [drawing 955] has a reported Fungal growth (%) CERCSO of 71%

What the record says about CO/N=C(/C(=O)OC)c1cccc(C)c1CO/N=C(\C)c1cccc(Cl)c1 : Fungal growth (%) CERCSO is 26%
